Tested on: Liver
experimental-details: Half life in CD-1 mouse liver microsomes at 1 uM in presence of NADPH by LC-MS/MS analysis
Type: ADME, microsome
Measured t1/2 of individual entries

{"columns": ["compound", "t1/2"],
 "data": [
  ["O=C(Nc1ccc(Cl)cc1)C1CCCN(C(=O)c2cccc(-n3cccn3)c2)C1 (centres undefined)", "1.7 min"],
  ["O=C(Nc1ccc(Cl)cc1)C1CN(C(=O)c2cc(F)cc(-c3ccncc3)c2)CC(F)(F)C1 (centres undefined)", "6.9 min"],
  ["O=C(Nc1ccc(Cl)cc1)C1CN(C(=O)c2cncc(-c3ccncc3)c2)CC(F)(F)C1 (centres undefined)", "7.7 min"],
  ["O=C(Nc1ccc(Cl)cc1)C1CN(C(=O)c2cccc(-n3cccn3)c2)CC(F)(F)C1 (centres undefined)", "4.8 min"],
  ["O=C(Nc1ccc(Cl)cc1)C1CN(C(=O)c2cncc(-c3ccco3)c2)CC(F)(F)C1 (centres undefined)", "3 min"],
  ["O=C(c1cccc(-c2ccco2)c1)N1CCCC(COc2ccc(Cl)cc2)C1 (centres undefined)", "1.8 min"],
  ["O=C(Nc1ccc(Cl)cc1)C1CN(C(=O)c2cccc(-c3ncccn3)c2)CC(F)(F)C1 (centres undefined)", "11.9 min"],
  ["O=C(Nc1ccc(Cl)cc1)C1CCCN(C(=O)c2cc(-c3ccco3)ccn2)C1 (centres undefined)", "< 3 min"],
  ["O=C(Nc1ccc(Cl)cc1)C1CN(C(=O)c2cccc(-c3ccncc3)c2)CC(F)(F)C1 (centres undefined)", "7.8 min"],
  ["O=C(Nc1ccc(Cl)cc1)C1CN(C(=O)c2cccc(-c3cccnc3)c2)CC(F)(F)C1 (centres undefined)", "< 3 min"],
  ["O=C(Nc1ccc(Cl)cc1)C1CCCN(C(=O)c2cncc(-c3ccco3)c2)C1 (centres undefined)", "< 3 min"],
  ["CN(C)C1CC(C(=O)Nc2ccc(Cl)cc2)CN(C(=O)c2cccc(-c3ccco3)c2)C1 (centres undefined)", "3.3 min"],
  ["O=C(c1cccc(-c2ccco2)c1)N1CCCC(F)(C(=O)Nc2ccc(Cl)cc2)C1 (centres undefined)", "2.8 min"],
  ["O=C(Nc1ccc(Cl)cc1)C1CCCN(C(=O)c2cccc(-c3cc[nH]n3)c2)C1 (centres undefined)", "3.4 min"]
]}
